Target: T1, human CD33, full length, on cells (human, UniProt P20138 18-364)
T1 construct: NIH-3T3 cells stably overexpressing full-length human CD33, or AML lines U937 and Set2 with endogenous CD33; the cell line is named under assay; also called 3T3-huCD33; 3T3-CD33
T1 sequence (P20138 18-364): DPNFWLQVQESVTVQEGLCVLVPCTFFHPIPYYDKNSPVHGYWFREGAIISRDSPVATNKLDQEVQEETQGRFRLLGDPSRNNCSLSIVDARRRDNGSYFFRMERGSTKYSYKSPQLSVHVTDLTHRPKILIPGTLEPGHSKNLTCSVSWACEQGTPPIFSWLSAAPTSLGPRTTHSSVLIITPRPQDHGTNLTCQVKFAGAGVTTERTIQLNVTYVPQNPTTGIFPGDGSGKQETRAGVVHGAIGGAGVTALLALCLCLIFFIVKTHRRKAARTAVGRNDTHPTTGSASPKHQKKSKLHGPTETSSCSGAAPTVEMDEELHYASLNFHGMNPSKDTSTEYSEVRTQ
Test: flow cytometry, 3T3-CD33 cells
measure: pEC50
Note on units: pEC50 is unitless, being -log10 of a concentration expressed in mol/L.

Sample answers from the record:
TDI-Y-006 (antibody, V domains shown, also called 3P14 (recombinant, human IgG1 constant region)) VH: EVQLLESGGGLVQPGGSLRLSCAASGFTFSTYAMSWVRQAPGKGLEWVSAISGRGGSTYYTDSVKGRFTISRDNSKNTVSLQMNSLRAEDTAVYYCAGRGDYYYYYGMDVWGQGTTVTVSA VL: DIVMTQSPLSSPVTLGQPASFSCRSSQSLVYSDGNTYLSWLQQRPGQPPRLLIYKISNRFSGVPDRFSGSGAGTDFTLKISRVEAEDVGVYYCMQSTQFPHTFGQGTKLEIK ... 8.30
1J19 (recombinant, human IgG1 constant region) (antibody, V domains shown) VH: QVQLQQSGPGLVKPSQTLSLTCAISGDSVSSNSAAWNWIRQSPSRGLEWLGRTYFRSKWYNVYAVSVKSRITINPDTSKNQFSLQLNSVTPEDTAVYYCASEGGSYYDHWGQGTLVTVSS VL: DIQMTQSPSSVSASVGDRVTITCRASQGISNWLTWYQQKPGKAPKLLIYAASSLQSGVPSRFSGSGSGTDFTLTISSLQPEDFATYYCQQADSFPFTFGPGTKVDIK ... 8.18
H195 (lintuzumab) (antibody, V domains shown) VH: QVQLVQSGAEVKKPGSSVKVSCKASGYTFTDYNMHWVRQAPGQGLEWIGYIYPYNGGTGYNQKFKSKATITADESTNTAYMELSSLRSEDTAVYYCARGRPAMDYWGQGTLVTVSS VL: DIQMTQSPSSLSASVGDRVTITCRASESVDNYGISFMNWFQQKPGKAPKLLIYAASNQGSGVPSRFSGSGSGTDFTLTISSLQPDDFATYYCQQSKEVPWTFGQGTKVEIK ... 8.32

Moving on to the next binder.
Ask | # pEC50 lookup, item TDI-Y-007 (antibody, V domains shown, also called 4B2 (recombinant, human IgG1 constant region)) VH: EVHLLESGGGLVQPGGSLRLSCAASGFIFSSNAMSWVRQAPGKGLEWVSAISGYGGNTYYADSVKGRFTISRDNSKNTLYLQMNSLRAEDTAVYYCAKWGTYIVGATGDYWGQGTLVTVSS VL: QSALTQPPSASGSPGQSVTISCTGTSNDVGGYNYVSWYQQHPGKAPKLLIYEVSKRPSGVPDRFSGSQSGNTASLTVSGLQAEDEADYYCSSYAGSNNWVFGGGTKLTVL
Reply | 7.77

Source listed as patent US20240262910A1.
